# measurementTarget: full-length human RORγt (Homo sapiens (Human))
# Sequence (P51449 other isoform, or with tags, fused parts or gaps): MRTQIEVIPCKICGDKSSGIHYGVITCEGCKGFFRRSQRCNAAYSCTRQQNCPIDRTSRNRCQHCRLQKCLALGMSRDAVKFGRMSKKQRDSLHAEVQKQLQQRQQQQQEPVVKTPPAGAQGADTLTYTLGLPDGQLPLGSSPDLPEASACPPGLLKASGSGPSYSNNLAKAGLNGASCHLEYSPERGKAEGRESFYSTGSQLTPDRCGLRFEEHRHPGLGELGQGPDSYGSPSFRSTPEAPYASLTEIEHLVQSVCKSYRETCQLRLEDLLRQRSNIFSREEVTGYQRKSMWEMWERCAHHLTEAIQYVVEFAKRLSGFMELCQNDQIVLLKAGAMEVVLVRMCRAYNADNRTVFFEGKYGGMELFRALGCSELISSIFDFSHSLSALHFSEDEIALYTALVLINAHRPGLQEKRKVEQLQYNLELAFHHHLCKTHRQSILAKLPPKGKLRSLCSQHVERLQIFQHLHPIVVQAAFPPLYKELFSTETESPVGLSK
# assayOverview: RORγt (full-length human) reporter assay, Conditions B or C
# Assay type: cell-based
# conditionNotes: Conditions B or C; read-out: RORγt (FL) Reporter Assay B or C, IC50
endpointLabel: pIC50
One number for each entry, as −log10 of the molar value.

Please review the following examples before continuing.
chemicalString: CC(C)(O)CNC(=O)c1nc(C(=O)N2C3CCC2CC3)c(-c2cnc(NCC(C)(C)C(F)(F)F)cc2C(F)(F)F)s1
pIC50: 7.48
--
chemicalString: C[C@H]1CCCN1C(=O)c1nc(C(=O)NCC2(O)CCC2)sc1-c1cnc(NC(C)(C)C)cc1C(F)(F)F
pIC50: 7.85
--
chemicalString: CC(C)(C)CNc1cc(C(F)(F)F)c(-c2sc(C(=O)NCC(C)(C)O)nc2C(=O)N2C3CCC2CC3)cn1
pIC50: 7.74
--
chemicalString: CC[C@H](Nc1cc(C(F)(F)F)c(-c2sc(C(=O)NCC(C)(C)O)nc2C(=O)N2CC(F)(F)C[C@@H]2C)cn1)C(F)(F)F
pIC50: 7.77

Shifting focus to the compound that follows.
Q: // fetch pIC50 given entry `CC[C@H](Nc1cc(C(F)F)c(-c2sc(C(=O)NC3CCOCC3)nc2C(=O)N2C3CCC2CC3)cn1)C(F)(F)F`
Ans: 7.28
